Test system: Klebsiella 63
Assay: MIC, liquid medium test tube series dilution test
Format: cell-based
Conditions: Klebsiella 63, 24 hours, 37°C
Description: The chemotherapeutic activity of the new penicillins was tested in vivo and in vitro. The in vitro inhibition values (MIC = minimum inhibition concentration (see Tables 1 and 2) were determined in a liquid medium in the test tube series dilution test, with readings being taken after 24 hours' incubation at 37°C. The MIC is indicated by the non-turbid test tube in the dilution series. A complete medium of the following composition was used as the nutrient medium: […]
measuredAttribute: MIC (units/ml)
Kindly provide the numeric value in units/ml only, without the unit symbol.

CCCCOC(=O)N(C)C(=O)N[C@@H](C(=O)N[C@@H]1C(=O)N2[C@@H]1SC(C)(C)[C@@H]2C(=O)O)c1ccccc1 [Example 98]	400
CCN(C(=O)N[C@@H](C(=O)N[C@@H]1C(=O)N2[C@@H]1SC(C)(C)[C@@H]2C(=O)O)c1ccccc1)C(=O)c1ccccc1	50

Request: Consider the molecule CN(C(=O)C=Cc1ccccc1)C(=O)N[C@@H](C(=O)N[C@@H]1C(=O)N2[C@@H]1SC(C)(C)[C@@H]2C(=O)O)c1ccccc1 and give its recorded MIC.
Result: 50

====

System: E. coli C 165
Test: MIC, liquid medium test tube series dilution test
Assay type: cell-based
Details: E. coli C 165, 24 hours, 37°C
measuredAttribute: MIC (units/ml)
// units = units/ml; emit number, no label

Please review the following examples before continuing.
CN(C)C(=O)N(C)C(=O)N[C@@H](C(=O)N[C@@H]1C(=O)N2[C@@H]1SC(C)(C)[C@@H]2C(=O)O)c1ccccc1	50
Cc1ccc(C(NC(=O)N2CCNC2=O)C(=O)N[C@@H]2C(=O)N3[C@@H]2SC(C)(C)[C@@H]3C(=O)O)cc1 (stereo partly shown) [Example 45]	25
CN(C(=O)N[C@@H](C(=O)N[C@@H]1C(=O)N2[C@@H]1SC(C)(C)[C@@H]2C(=O)O)c1ccccc1)C(=O)c1cccc(Cl)c1	1.56

Request: Supply measured MIC of CN(C(=O)N[C@@H](C(=O)N[C@@H]1C(=O)N2[C@@H]1SC(C)(C)[C@@H]2C(=O)O)c1ccccc1)C(=O)c1ccccc1Br in your reply.
Result: 1.56

Request: Given the compound CN(C(=O)CCCCl)C(=O)N[C@@H](C(=O)N[C@@H]1C(=O)N2[C@@H]1SC(C)(C)[C@@H]2C(=O)O)c1ccccc1 [Example 2] , write its reported MIC.
Result: 12.5

Request: Give the reported value of MIC for this record: Cc1ccc(C(NC(=O)N(C)C(=O)c2ccccc2F)C(=O)N[C@@H]2C(=O)N3[C@@H]2SC(C)(C)[C@@H]3C(=O)O)cc1 (stereo partly shown)
Result: 25

Request: Give me measured MIC, please, for this compound: CN(C(=O)N[C@@H](C(=O)N[C@@H]1C(=O)N2[C@@H]1SC(C)(C)[C@@H]2C(=O)O)c1ccccc1)C(=O)c1ccc(Cl)cc1Cl
Result: 3.1

====

Test system: Psdm. aerug. Bonn
Experiment: MIC, liquid medium test tube series dilution test
Format: cell-based, Pseudomonas aerug.
Conditions: 24 hours, 37°C
measuredAttribute: MIC (units/ml)
I only need the number, in units/ml, no unit after it.

Check out these entries, answers already filled in.
CCN(C(=O)N[C@@H](C(=O)N[C@@H]1C(=O)N2[C@@H]1SC(C)(C)[C@@H]2C(=O)O)c1ccccc1)C(=O)c1ccccc1Cl [Example 138]	25
C=CCN(C(C)=O)C(=O)N[C@@H](C(=O)N[C@@H]1C(=O)N2[C@@H]1SC(C)(C)[C@@H]2C(=O)O)c1ccccc1 [Example 86]	25
CC1(C)S[C@@H]2[C@H](NC(=O)[C@H](NC(=O)NC(=O)c3ccccc3)c3ccccc3)C(=O)N2[C@H]1C(=O)O [reference compound]	25
CN(C(=O)N[C@@H](C(=O)N[C@@H]1C(=O)N2[C@@H]1SC(C)(C)[C@@H]2C(=O)O)c1ccccc1)C(=O)OC1CCCCC1 [Example 29]	25

// next item, MIC requested
Request: Check the records and state MIC for CCOC(=O)N(C)C(=O)N[C@@H](C(=O)N[C@@H]1C(=O)N2[C@@H]1SC(C)(C)[C@@H]2C(=O)O)c1ccccc1 [Example 61]
Result: 12.5

====

Tested on: Psdm. aerug. Walter
Assay: MIC, liquid medium test tube series dilution test
Type: cell-based, Pseudomonas aerug.
Details: 24 hours, 37°C
Method: The chemotherapeutic activity of the new penicillins was tested in vivo and in vitro. The in vitro inhibition values (MIC = minimum inhibition concentration (see Tables 1 and 2) were determined in a liquid medium in the test tube series dilution test, with readings being taken after 24 hours' incubation at 37°C. The MIC is indicated by the non-turbid test tube in the dilution series. A complete medium of the following composition was used as the nutrient medium: […]
measuredAttribute: MIC (units/ml)
Field format: number, assumed units/ml, no unit text.

Request: Please give measured MIC of the following entry: CC(=O)N(C)C(=O)N[C@@H](C(=O)N[C@@H]1C(=O)N2[C@@H]1SC(C)(C)[C@@H]2C(=O)O)c1ccccc1 [Example 66A]
Result: 12.5

Request: Tell me MIC reported for CCOC(=O)N(C)C(=O)N[C@@H](C(=O)N[C@@H]1C(=O)N2[C@@H]1SC(C)(C)[C@@H]2C(=O)O)c1ccccc1
Result: 25

Request: Given CN(C(=O)N[C@@H](C(=O)N[C@@H]1C(=O)N2[C@@H]1SC(C)(C)[C@@H]2C(=O)O)c1ccccc1)C(=O)N1CCCC1 , respond with its MIC.
Result: 100

Request: Give reported MIC value for CC1(C)S[C@@H]2[C@H](NC(=O)[C@H](NC(=O)N3CCNC3=S)c3ccccc3)C(=O)N2[C@H]1C(=O)O
Result: 200

====

Tested on: Proteus vulg. 1017
Assay: MIC, liquid medium test tube series dilution test
Format: cell-based, Proteus vulgaris
Conditions: Proteus vulg. 1017, 24 hours, 37°C
measuredAttribute: MIC (units/ml)
Express your answer in units/ml, writing the number without its unit.

Before answering, review these 5 worked examples.
CC1(C)S[C@@H]2[C@H](NC(=O)[C@H](NC(=O)N3CCCCC3=O)c3ccccc3)C(=O)N2[C@H]1C(=O)O	12.5
CN(C(=O)N[C@@H](C(=O)N[C@@H]1C(=O)N2[C@@H]1SC(C)(C)[C@@H]2C(=O)O)c1ccccc1)C(=O)c1ccccc1Br	1.56
CCOC(=O)N(C)C(=O)N[C@@H](C(=O)N[C@@H]1C(=O)N2[C@@H]1SC(C)(C)[C@@H]2C(=O)O)c1ccccc1	25
CN(C(=O)N[C@@H](C(=O)N[C@@H]1C(=O)N2[C@@H]1SC(C)(C)[C@@H]2C(=O)O)c1ccccc1)C(=O)C1CC=CCC1 (single isomer, unassigned)	3.12
CN(C(=O)N[C@@H](C(=O)N[C@@H]1C(=O)N2[C@@H]1SC(C)(C)[C@@H]2C(=O)O)c1ccccc1)C(=O)C1CCCCC1	6.25

Request: Identify the reported MIC for the following entry. Cc1ccc(C(=O)N(C)C(=O)N[C@@H](C(=O)N[C@@H]2C(=O)N3[C@@H]2SC(C)(C)[C@@H]3C(=O)O)c2ccccc2)cc1[N+](=O)[O-]
Result: 12.5

Request: Answer with reported MIC of CN(C(=O)N[C@@H](C(=O)N[C@@H]1C(=O)N2[C@@H]1SC(C)(C)[C@@H]2C(=O)O)c1ccccc1)C(=O)c1cccc(Cl)c1
Result: 3.12

====

Tested on: E. coli C 165
Experiment: MIC, liquid medium test tube series dilution test
Type: cell-based
Settings: E. coli C 165, 24 hours, 37°C
Binary label based on MIC with cut-off 20 units/ml: below gives label 1, not below gives label 0.

Request: Please indicate whether the reported MIC of CC(C)OC(=O)N(C)C(=O)N[C@@H](C(=O)N[C@@H]1C(=O)N2[C@@H]1SC(C)(C)[C@@H]2C(=O)O)c1ccccc1 is strictly below 20 units/ml.
Result: label 0

Request: Consider the compound C=CCN(C(=O)N[C@@H](C(=O)N[C@@H]1C(=O)N2[C@@H]1SC(C)(C)[C@@H]2C(=O)O)c1ccccc1)C(=O)c1ccccc1 . Is its MIC strictly less than 20 units/ml?
Result: label 1

====

System: Klebsiella 63
Assay: MIC, liquid medium test tube series dilution test
Assay type: cell-based
Details: Klebsiella 63, 24 hours, 37°C
measuredAttribute: MIC (units/ml)
State just the number; it will be interpreted in units/ml.

CN(C(=O)N[C@@H](C(=O)N[C@@H]1C(=O)N2[C@@H]1SC(C)(C)[C@@H]2C(=O)O)c1ccccc1)C(=O)c1ccccc1Br [Example 128]	6.25
CSc1ccc(C(NC(=O)N2CCNC2=O)C(=O)N[C@@H]2C(=O)N3[C@@H]2SC(C)(C)[C@@H]3C(=O)O)cc1 (some centres unmarked) [Example 54]	100
CCN(C(=O)N[C@@H](C(=O)N[C@@H]1C(=O)N2[C@@H]1SC(C)(C)[C@@H]2C(=O)O)c1ccccc1)C(=O)c1ccccc1Cl [Example 138]	50
COc1ccc(C(=O)N(C)C(=O)N[C@@H](C(=O)N[C@@H]2C(=O)N3[C@@H]2SC(C)(C)[C@@H]3C(=O)O)c2ccccc2)cc1[N+](=O)[O-] [Example 83]	50
CN(C(=O)N[C@@H](C(=O)N[C@@H]1C(=O)N2[C@@H]1SC(C)(C)[C@@H]2C(=O)O)c1ccccc1)C(=O)N1CCOCC1 [Example 125]	100

Request: Identify MIC associated with the molecule CN(C)C(=O)N(C)C(=O)N[C@@H](C(=O)N[C@@H]1C(=O)N2[C@@H]1SC(C)(C)[C@@H]2C(=O)O)c1ccccc1 [Example 94]
Result: 200

Request: Give the reported MIC for this molecule. CN(C(=O)N[C@@H](C(=O)N[C@@H]1C(=O)N2[C@@H]1SC(C)(C)[C@@H]2C(=O)O)c1ccccc1)C(=O)c1ccccc1[N+](=O)[O-] [Example 140]
Result: 25

The origin of these recorded values is patent US3974140A.
